Each recorded value in this set is attributed to patent US4923963A.

test system: rat blood pressure; assay: effects on blood pressure in the anesthetized rat (RBP), intraaortic and intravenous bolus; format: in vivo; details: relative to BK = 100%
Square brackets hold non-standard residues; d marks the D form. Peptide text beside a SMILES is read from it. 2Thi = N[C@@H](Cc1cccs1)C(=O)O
PROPERTY NAME: % DESTR (metabolic breakdown of BK-like agonists in RBP assay) (%)
Numbers only, in %.

| COMPOUND | ENDPOINT VALUE |
| --- | --- |
| CC[C@@H](C)[C@@H](NC(=O)[C@H](CCCNC(=N)N)NC(=O)[C@H](Cc1cccs1)NC(=O)[C@@H](Cc1ccccc1)NC(=O)[C@H](CO)NC(=O)[C@H](Cc1cccs1)NC(=O)CNC(=O)[C@@H]1CCCN1C(=O)[C@@H]1CCCN1C(=O)[C@@H](N)CCCNC(=N)N)C(=O)N[C@@H](Cc1ccc(O)cc1)C(=O)O [Example 71] (H-RPPG[2Thi]S[dF][2Thi]R[dI]Y-OH) | 55 |
| CC[C@H](C)[C@H](NC(=O)[C@H](CCCNC(=N)N)NC(=O)[C@H](Cc1ccccc1)NC(=O)[C@@H]1CCCN1C(=O)[C@H](CO)NC(=O)[C@H](Cc1ccccc1)NC(=O)CNC(=O)[C@@H]1CCCN1C(=O)[C@@H]1CCCN1C(=O)[C@H](CCCNC(=N)N)NC(=O)[C@H](CCCCN)NC(=O)[C@@H](N)CCCCN)C(=O)N[C@@H](Cc1ccc(O)cc1)C(=O)O | 0 |
| CC[C@@H](C)[C@@H](NC(=O)[C@H](CCCNC(=N)N)NC(=O)[C@H](Cc1ccccc1)NC(=O)[C@@H](Cc1ccccc1)NC(=O)[C@H](CO)NC(=O)[C@H](Cc1ccccc1)NC(=O)CNC(=O)[C@@H]1CCCN1C(=O)[C@@H]1CCCN1C(=O)[C@@H](N)CCCNC(=N)N)C(=O)N[C@@H](Cc1ccc(O)cc1)C(=O)O [Example 69] (H-RPPGFS[dF]FR[dI]Y-OH) | 75 |
| CC[C@H](C)[C@H](NC(=O)[C@H](CCCNC(=N)N)NC(=O)[C@H](Cc1ccccc1)NC(=O)[C@@H](Cc1ccccc1)NC(=O)[C@H](CO)NC(=O)[C@H](Cc1ccccc1)NC(=O)CNC(=O)[C@@H]1CCCN1C(=O)[C@@H]1CCCN1C(=O)[C@@H](N)CCCNC(=N)N)C(=O)N[C@@H](Cc1ccc(O)cc1)C(=O)O [Example 63] (H-RPPGFS[dF]FRIY-OH) | 70 |
| CC[C@H](C)[C@H](NC(=O)[C@H](CCCNC(=N)N)NC(=O)[C@H](Cc1cccs1)NC(=O)[C@@H](Cc1ccccc1)NC(=O)[C@H](CO)NC(=O)[C@H](Cc1cccs1)NC(=O)CNC(=O)[C@@H]1CCCN1C(=O)[C@@H]1CCCN1C(=O)[C@@H](N)CCCNC(=N)N)C(=O)N[C@@H](Cc1ccc(O)cc1)C(=O)O [Example 65] (H-RPPG[2Thi]S[dF][2Thi]RIY-OH) | 0 |

Now for the compound whose % DESTR (metabolic breakdown of BK-like agonists in RBP assay) we want.
Q: Looking for the measured % DESTR (metabolic breakdown of BK-like agonists in RBP assay) of CC[C@H](C)[C@H](NC(=O)[C@H](CCCNC(=N)N)NC(=O)[C@H](Cc1ccccc1)NC(=O)[C@@H]1CCCN1C(=O)[C@H](CO)NC(=O)[C@H](Cc1ccccc1)NC(=O)CNC(=O)[C@@H]1CCCN1C(=O)[C@@H]1CCCN1C(=O)[C@H](CCCNC(=N)N)NC(=O)[C@H](N)CCCNC(=N)N)C(=O)N[C@@H](Cc1ccc(O)cc1)C(=O)O [Example 60] (H-[dR]RPPGFSPFRIY-OH) , can you help?
A: 47
